Test system: IGROV1 ovarian
Assay: NCI tumour cell line growth inhibition, 48 h; in the data active means GI50 below about 0.43 µM; inactive means the rest
Labels: active, inactive

structure_as_smiles=CC(=O)N=c1ccc2nc3c(cc(N)c4ccccc43)oc-2c1 test_target="IGROV1 ovarian" assigned_class=active
structure_as_smiles=N.N.NCCCCN.O=C([O-])C1(C(=O)[O-])CCC1.O=C([O-])C1(C(=O)[O-])CCC1.[Pt+4].[Pt+4] test_target="IGROV1 ovarian" assigned_class=inactive
structure_as_smiles=CCCCCCCC[N+](C)(CCCCCCCC)CCCCCCCC test_target="IGROV1 ovarian" assigned_class=active
structure_as_smiles=COC(=O)CCC/C=C\C[C@H]1C=CC(=O)/C1=C/C[C@@H](O)C/C=C\CC(F)(F)F test_target="IGROV1 ovarian" assigned_class=inactive
structure_as_smiles=CCC(=C/[C@H](C)C/C=C/C(C)=C/[C@@H](C)C(=O)[C@@H](C)[C@H](O)[C@@H](C)CC)/C=C/[C@H]1OC(=O)C=C[C@H]1C test_target="IGROV1 ovarian" assigned_class=active
structure_as_smiles=CCOC(=O)c1c(C(F)(F)F)n([O-])c2ccc(OC)cc2[n+]1=O test_target="IGROV1 ovarian" assigned_class=inactive
structure_as_smiles=Cn1cc(C2=C(c3cn(CCN)c4ccccc34)C(=O)NC2=O)c2ccccc21 test_target="IGROV1 ovarian" assigned_class=inactive
structure_as_smiles=C=C(C)[C@@H]1CC[C@]2(C)[C@H](CC[C@@H]3[C@H]4[C@H]5OC[C@@]4(CCC5(C)C)CC[C@]32C)[C@@]1(C)CCCN test_target="IGROV1 ovarian" assigned_class=inactive
structure_as_smiles=CCOC(=O)c1sc(Nc2ccc(Cl)cc2)nc1C test_target="IGROV1 ovarian" assigned_class=inactive

Reference source: PubChem BioAssay (NCI)
